Target: Full-length human MNK2 (Homo sapiens, UniProt Q9HBH9, T379D)
Construct: GST (N); purchased Carna Biosciences 02-146; host or cells: baculovirus expression system
Sequence (Q9HBH9 whole entry T379D): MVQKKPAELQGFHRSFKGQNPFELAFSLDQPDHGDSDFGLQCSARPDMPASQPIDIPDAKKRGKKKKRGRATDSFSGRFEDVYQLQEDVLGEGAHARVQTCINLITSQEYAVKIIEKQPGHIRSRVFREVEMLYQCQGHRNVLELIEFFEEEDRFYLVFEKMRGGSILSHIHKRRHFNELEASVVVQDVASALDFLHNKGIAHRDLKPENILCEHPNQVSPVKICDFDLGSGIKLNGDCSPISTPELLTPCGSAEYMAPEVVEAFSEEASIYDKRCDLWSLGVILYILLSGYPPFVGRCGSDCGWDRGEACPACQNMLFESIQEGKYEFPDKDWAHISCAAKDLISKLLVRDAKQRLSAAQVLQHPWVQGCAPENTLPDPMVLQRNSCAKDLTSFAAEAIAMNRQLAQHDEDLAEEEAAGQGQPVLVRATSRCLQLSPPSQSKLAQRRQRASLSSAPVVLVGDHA
Assay: MNK2 biochemical IC50 assay (Caliper Mobility Shift Assay)
Conditions: read-out: P(IC50) MNK2 (converted)
IC50 strictly less than 5 nM = fulfilled. Otherwise not fulfilled.

Data request: Lab note: confirm whether the reported IC50 for this compound is below 5 nM, equality not counting. compound: CC(C)Oc1cc(F)ccc1Nc1ncnc2sc(C(=O)NCC3CCN(C)CC3)nc12
Data returned: not fulfilled

Data request: Lab note: confirm whether the reported IC50 for this compound is below 5 nM, equality not counting. compound: CC1(C)CN(c2ncnc3sc(C(=O)NC4CCOCC4)nc23)c2ccc(F)cc21
Data returned: fulfilled

Data request: Lab note: confirm whether the reported IC50 for this compound is below 5 nM, equality not counting. compound: CC(C)(O)CC1CN(c2ncnc3sc(C(=O)NCC4CCNCC4)nc23)c2ccc(F)cc21 (stereo not drawn)
Data returned: not fulfilled

Data request: Lab note: confirm whether the reported IC50 for this compound is below 5 nM, equality not counting. compound: CC1(C)CN(c2ncnc3sc(C(=O)NCCCO)nc23)c2ccccc21
Data returned: fulfilled
